- Tested on: Botrytis cinerea (B05.10)
- assayComment: Resazurin antifungal assay of 180 alpha-factor peptide variants towards Botrytis (Example 2)
- Format: cell-based
- assayContext: % inhibition of fungal growth, Botrytis conidia, peptide 20 μM, resazurin
Peptide text beside a SMILES is read from it.
measuredEndpoint: Inhibition at 20 μM

### Prompt Fill blank: measured Inhibition at 20 μM of the molecule CC[C@H](C)[C@H](NC(=O)[C@H](CCC(N)=O)NC(=O)[C@H](CC(C)C)NC(=O)[C@H](Cc1c[nH]c2ccccc12)NC(=O)[C@H](CCCNC(=N)N)NC(=O)[C@@H](N)CCCCN)C(=O)N[C@@H](CCCNC(=N)N)C(=O)N1CCC[C@H]1C(=O)NCC(=O)N[C@@H](CCC(=O)O)C(=O)N1CCC[C@H]1C(=O)N[C@@H](CCSC)C(=O)N[C@@H](Cc1ccc(O)cc1)C(=O)O [compound 109] (H-KRWLQIRPGEPMY-OH; N-terminus and C-terminus assumed) is ____.
### Response <90%
